Test system: 786-0 renal
Test: NCI-60 one-dose screen, 48 h
Conditions: 10 µM unless noted
This is part of a sample that, as a whole, favours compounds with a hit. Of some 83,000 tested, about 20% had one in any assay. The source made the active and inactive calls. How the source made its calls: active means growth percent below 10; inactive means the rest.
Classes used: true for active, false for inactive

compound=c1ccc([P+](c2ccccc2)(c2ccccc2)c2ccc3c4ccc([P+](c5ccccc5)(c5ccccc5)c5ccccc5)c5cccc(c6cccc2c63)c54)cc1 class_name=false
compound=c1ccc(Cn2cc3c(c2)-c2oncc2CC3)cc1 class_name=false
compound=C1CN(SSN2CCOCC2)CCO1 class_name=true
compound="CCC(C)(C)C(=O)O[C@H]1C[C@@H](C)C=C2C=C[C@H](C)[C@H](CC[C@@H]3CC(SCCN)CC(=O)O3)[C@H]21 (stereo partly specified)" class_name=false
compound=O=C(Nc1cccc(-c2ccc(N3CCOCC3)nn2)c1)Nc1cccc(C(F)(F)F)c1 class_name=false
compound=CCOC(=O)c1csc(NC(=O)COc2ccc(/C=C3\Oc4ccccc4C3=O)cc2)n1 class_name=false
compound=COc1ccc(-c2noc(C(=O)O)c2-c2cc(OC)c(OC)c(OC)c2)cc1 class_name=false
compound=Nc1c(C(=O)Nc2ccccc2C(F)(F)F)sc2nc3c(cc12)CCC3 class_name=false
compound="CC(C)=CCCC(C)c1ccc(C)c2c1OCN(CCCCCO)C2 (stereo unspecified)" class_name=false
compound=Cc1ccc2c(Cn3cc(CSc4nc5ccccc5o4)nn3)cc(=O)oc2c1 class_name=false
compound=Nc1n[nH]c2cccc(C#Cc3cccc(C(=O)Nc4cc(C(F)(F)F)cc(C(F)(F)F)c4)c3)c12 class_name=false
compound=COC1=CC(c2ccc[nH]2)=N/C1=C\c1[nH]c(C)c(CC(=O)OCc2ccccc2)c1CCC(=O)OCc1ccccc1 class_name=true
compound=COC1=CC(c2ccc[nH]2)=N/C1=C\c1[nH]c(C)c(CC(=O)NCc2ccccc2)c1C class_name=true
compound=CN(c1cc2ncc(=O)[nH]c2cc1NC(N)=NCc1ccc(Cl)cc1)C1CCCCC1 class_name=false
compound="COC1/C=C/OC2(C)Oc3c(C)c(O)c4c(O)c(c(/C=N/Nc5ccc([N+](=O)[O-])cc5[N+](=O)[O-])c(O)c4c3C2=O)NC(=O)C(C)=C/C=C/C(C)C(O)C(C)C(O)C(C)C(OC(C)=O)C1C (stereo unspecified)" class_name=false
compound=COc1ccc(C2=C(Nc3ccc(C(=O)Nc4ccccc4)cc3)C(=O)N(C)C2=O)cc1 class_name=false

# credit: PubChem BioAssay (NCI)
